# Tested on: SF-539
# EXPERIMENTAL DETAILS: NCI tumour cell line growth inhibition, 48 h
Calls of active or inactive are those of the source. No stated cut-off is given here; in the data, active = GI50 up to about 1.1 µM and inactive = higher.
Outcome codes: T = active, F = inactive

- MOLECULE: "Cc1n[nH]c(=O)n1/N=C/c1cccs1"
  TESTED ON: "SF-539"
  CLASS: "F"
- MOLECULE: "Cc1ccc(S(=O)(=O)NNS(C)(=O)=O)cc1"
  TESTED ON: "SF-539"
  CLASS: "F"
- MOLECULE: "O=C(O)C[n+]1cn(NC(=O)Cc2ccccc2)cn1"
  TESTED ON: "SF-539"
  CLASS: "F"
- MOLECULE: "COC(=O)c1cc2cc3c(c(O)c2c(=O)o1)O[C@@]1(Oc2c(O)c4c(c(O)c2[C@H]1OC1CC(OC)C(O)C(C)O1)C(=O)C=C(OC)C4=O)[C@H](O)C3 (stereo not given in full)"
  TESTED ON: "SF-539"
  CLASS: "T"
- MOLECULE: "COCn1c2ccc(OC(C)=O)cc2c2c(=O)oc(C)nc21"
  TESTED ON: "SF-539"
  CLASS: "F"

====

# Test system: Hs-578T
# EXPERIMENTAL DETAILS: NCI tumour cell line growth inhibition, 48 h
Activity calls are given as the source filed them. Cut-off read from the data, not from the text of the source: active = GI50 up to about 1.1 µM and inactive = higher.
Classes used: active, inactive

- SMILES CODE: "CCOC(=O)c1cc(NC(=O)N(CCC#N)CCN(C(=O)N[C@@H](Cc2ccccc2)C(=O)N[C@@H](CC(C)C)C(=O)NC)c2ccccc2)ccc1OC"
  CLASS: "inactive"
- SMILES CODE: "CC(=O)/C(=C/NC(=S)c1cccnc1)C(=O)Nc1ccccc1C"
  CLASS: "inactive"
- SMILES CODE: "N#Cc1c(NC(=O)CCC(=O)O)ccc2ccccc12"
  CLASS: "inactive"
- SMILES CODE: "O=[N+]([O-])c1cccc2nc3ccccc3c(NCCC[N+]3([O-])CCOCC3)c12"
  CLASS: "active"
- SMILES CODE: "COc1ccc(N2C(=O)C(=O)N(c3ccccc3[N+](=O)[O-])C2=S)cc1"
  CLASS: "inactive"
- SMILES CODE: "S=C(Nc1cccc(C2(N3CCCCC3)CCCCC2)c1)Nc1cccc(C2(N3CCCCC3)CCCCC2)c1"
  CLASS: "inactive"
- SMILES CODE: "Cc1ccc(NCCN(C)C)c2c(=O)c3cc(O)ccc3sc12"
  CLASS: "active"
- SMILES CODE: "CC(C)C(=O)/C=C/S/C=C/C(=O)C(C)C"
  CLASS: "inactive"
- SMILES CODE: "ON[C@@H]1C=C[C@H](n2cnc3c(NC4CC4)ncnc32)C1"
  CLASS: "inactive"
- SMILES CODE: "Nc1nc(Cl)cc(NCC2(O)CC2)n1"
  CLASS: "inactive"

====

# Test system: MCF7
# EXPERIMENTAL DETAILS: NCI tumour cell line growth inhibition, 48 h
Calls of active or inactive are those of the source. No stated cut-off is given here; in the data, active = GI50 up to about 1.1 µM and inactive = higher.
Possible outcomes: 1 (yes) = active, 0 (no) = inactive

- MOLECULE: "CCOC(=O)c1cn(C)nc1N/C(C)=C\\C(=O)c1ccccc1"
  CLASS: "0 (no)"
- MOLECULE: "COc1cc(S(=O)(=O)Nc2ccc(-c3csc(N4C(=O)C(C)SC4c4cccc(Oc5ccccc5)c4)n3)cc2)ccc1Cl (centres undefined)"
  CLASS: "0 (no)"
- MOLECULE: "c1csc(-c2ccc(-c3ccc(-c4ccc(-c5cccs5)s4)s3)s2)c1"
  CLASS: "0 (no)"
- MOLECULE: "CC1(c2ccc(F)cc2)CC(c2ccc(F)cc2)=C(C#N)C(=C(C#N)C#N)N1 (centres undefined)"
  CLASS: "0 (no)"
- MOLECULE: "COc1cc(C2c3cc4c(cc3[C@@H](Nc3cccc([N+](=O)[O-])c3)C3COC(=O)[C@H]23)OCO4)cc(OC)c1O (some centres undefined)"
  CLASS: "1 (yes)"
- MOLECULE: "CCc1nc(N)nc(N)c1-c1ccc(N2CCNCC2)cc1"
  CLASS: "0 (no)"
- MOLECULE: "N=C(N)N/N=C/c1c(-c2ccc(Cl)cc2)nc2sccn12"
  CLASS: "0 (no)"
- MOLECULE: "O=c1[nH]cnc2sc(=S)c3c(c12)CCC3"
  CLASS: "0 (no)"
- MOLECULE: "COCC1N=C(c2cc(OC)c(OC)c(OC)c2-c2cc3c(cc2[C@@H](C)O)OCO3)O[C@H]1c1ccccc1 (some centres undefined)"
  CLASS: "0 (no)"
- MOLECULE: "O=C(/C=C/c1ccccc1)Oc1ccc(C(=O)/C=C/c2ccc(Cl)cc2)cc1"
  CLASS: "0 (no)"
- MOLECULE: "ON[C@@H]1C=C[C@H](n2cnc3c(NC4CC4)ncnc32)C1"
  CLASS: "0 (no)"
- MOLECULE: "NC(Cc1ccc2nc3c4ccccc4c(=O)cc-3oc2c1)C(=O)O (centres undefined)"
  CLASS: "0 (no)"
- MOLECULE: "CCN(CC)C(=O)C1=C(C)NC(C)=C(C(=O)N(CC)CC)C1"
  CLASS: "0 (no)"
- MOLECULE: "NCCCCNCCCN1CC1"
  CLASS: "0 (no)"
- MOLECULE: "CCOC(=O)C1(C)CCCc2sc(N)c(C#N)c21 (centres undefined)"
  CLASS: "0 (no)"
- MOLECULE: "CC(O)CCCCC(O)CCC[C@H](O)[C@H]1CCC([C@H]2CCC([C@@H](O)CCCCCCCCCCCCC3=C[C@H](C)OC3=O)O2)O1 (some centres undefined)"
  CLASS: "0 (no)"
- MOLECULE: "CC(=O)N(C(=O)CC(=O)N1N=C(C)C(/N=N/c2cccc([N+](=O)[O-])c2)C1=O)c1ccc(Cl)cc1 (centres undefined)"
  CLASS: "0 (no)"
- MOLECULE: "O=C1/C(=C/c2ccc([N+](=O)[O-])cc2)Oc2cc(O)ccc21"
  CLASS: "0 (no)"
- MOLECULE: "COc1ccc(CNc2nc(NCc3ccc(OC)c(OC)c3)nc(NC3CCCCC3)n2)cc1"
  CLASS: "0 (no)"
- MOLECULE: "O=C1O[C@]2(c3ccccc3)C(c3ccccc3)=C[C@]2(C(=O)c2ccccc2)C1=O"
  CLASS: "0 (no)"
- MOLECULE: "CC1(C)/C(=N\\NC(N)=O)C2CCC1C2 (centres undefined)"
  CLASS: "0 (no)"
- MOLECULE: "C=C(C(=O)O)[C@@H]1C[C@@H]2O[C@H]1CC(C)=CCC/C(C)=C/CC[C@@]2(C)O"
  CLASS: "0 (no)"
- MOLECULE: "CC1=NN(C(=O)CC(=O)NC(=O)/C=C\\c2ccccc2)C(=O)C1/N=N/c1ccc([N+](=O)[O-])cc1 (centres undefined)"
  CLASS: "0 (no)"
- MOLECULE: "C=C(Cl)C(=C)CCC(Cl)C(C)(C)Cl (centres undefined)"
  CLASS: "0 (no)"
- MOLECULE: "Clc1ccc(NCNC2Nc3ccccc3N2)cc1Cl"
  CLASS: "1 (yes)"
- MOLECULE: "O/N=C/[C@H]1COC2(CCCCC2)O1"
  CLASS: "0 (no)"
- MOLECULE: "O=C1CS(=O)(=O)C(c2cccc(Oc3ccccc3)c2)N1c1cc(Cl)ccc1Cl (centres undefined)"
  CLASS: "0 (no)"
- MOLECULE: "C[Si](C)(C)C#CCO[Si](C)(C)C"
  CLASS: "0 (no)"
- MOLECULE: "O=CN1CCN(C(=O)c2ccco2)C1=S"
  CLASS: "0 (no)"
- MOLECULE: "C[C@]12CC[C@@H]3c4ccc(OP(=O)(O)O)cc4CC[C@H]3[C@@H]1CCC2=O"
  CLASS: "0 (no)"
- MOLECULE: "CN(C)CCCNC(=O)c1cc(NC(=O)c2cc(NC(=O)[C@@H]3C[C@H]3C(=O)Nc3cc(C(=O)Nc4cc(C(=O)NCCCN(C)C)n(C)c4)n(C)c3)cn2C)cn1C"
  CLASS: "0 (no)"
- MOLECULE: "Cc1cc(S(=O)(=O)[N-]/C(=N/S(=O)(=O)c2cc(Cl)sc2Cl)[n+]2ccc(N(C)C)cc2)c(S)cc1Cl"
  CLASS: "0 (no)"
- MOLECULE: "CCCCCC(=O)Nc1[nH]nnc1C(N)=O"
  CLASS: "0 (no)"
- MOLECULE: "CC(=O)/N=C1/N(/C=C2\\C(=O)Oc3ccccc3C2=O)C(=O)/C(=C/c2cccc(Cl)c2Cl)N1C"
  CLASS: "0 (no)"
- MOLECULE: "CCOC(=O)CCCSCCCC(=O)CCCSCCCC(=O)OCC"
  CLASS: "0 (no)"
- MOLECULE: "CC(=O)OC12c3ccccc3C(c3ccccc31)C1C(=O)N(c3ccccn3)C(=O)C12 (centres undefined)"
  CLASS: "0 (no)"
- MOLECULE: "O=C(O)c1cc(CC2Cc3cc4c(cc3C2=O)CCC4)cc2c1CCC2 (centres undefined)"
  CLASS: "0 (no)"
- MOLECULE: "COC(=O)c1cc2cc3c(c(O)c2c(=O)o1)O[C@@]1(Oc2c(O)c4c(c(O)c2[C@H]1OC1CC(OC)C(O)C(C)O1)C(=O)C=C(OC)C4=O)[C@H](O)C3 (some centres undefined)"
  CLASS: "0 (no)"
- MOLECULE: "CCOC(=O)c1cc(NC(=O)N(CCC#N)CCN(C(=O)N[C@@H](Cc2ccccc2)C(=O)N[C@@H](CC(C)C)C(=O)NC)c2ccccc2)ccc1OC"
  CLASS: "0 (no)"

// data source = ChEMBL document CHEMBL1201862
